tested_target: Akt1 (Homo sapiens, UniProt P31749)
Construct: recombinant human Akt1 protein (1775-KS-010, Bio-Techne)
Sequence (P31749 whole entry): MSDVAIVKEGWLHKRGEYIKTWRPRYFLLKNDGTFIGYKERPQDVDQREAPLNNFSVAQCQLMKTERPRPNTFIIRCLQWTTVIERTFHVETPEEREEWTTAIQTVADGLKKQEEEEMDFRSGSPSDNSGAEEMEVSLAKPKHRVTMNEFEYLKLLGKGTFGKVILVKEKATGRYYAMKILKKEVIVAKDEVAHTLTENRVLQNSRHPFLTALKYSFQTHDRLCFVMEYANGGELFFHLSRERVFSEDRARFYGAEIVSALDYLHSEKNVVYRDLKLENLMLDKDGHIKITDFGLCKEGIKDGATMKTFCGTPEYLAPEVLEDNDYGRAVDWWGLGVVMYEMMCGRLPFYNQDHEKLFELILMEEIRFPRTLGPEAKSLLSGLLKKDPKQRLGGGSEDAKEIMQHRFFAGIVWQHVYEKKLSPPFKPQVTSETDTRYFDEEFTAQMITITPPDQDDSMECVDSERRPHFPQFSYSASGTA
assay_explanation: SPR (Biacore T200, Akt1 amine-coupled on CM5 chip, […] steady-state fit)
Assay type: binding
run_parameters: read-out: Kd
metric: pKd
Lab note — pKd values are minus log10 of concentrations in M.

Enquiry: Fill in the blank: the reported pKd of COc1cc2ccc(=O)oc2cc1O [scopoletin] is ____.
Return: 4.96

###

tested_target: Akt1 (Homo sapiens, UniProt P31749)
Construct: recombinant human Akt1 protein (1775-KS-010, Bio-Techne)
assay_explanation: SPR (Biacore T200, Akt1 amine-coupled on CM5 chip, […] steady-state fit)
Type: binding
metric: pKd
Lab note — pKd values are minus log10 of concentrations in M.

Enquiry: Fill in the blank: the reported pKd of CCCC[C@@H]1OC(=O)C2=C1CCC=C2 [senkyunolide A] is ____.
Return: 3.12
